Test system: SW620 (colon)
Test: MTT cytotoxicity assay, 72 hours (Example 13)
Format: cell-based, human
Settings: SW620, 100 PM
Non-standard residues stand in square brackets, D forms with d. Residues, ends and D or L forms follow the SMILES beside them. Aib = CC(C)(N)C(=O)O
Define the label as yes (1) when Percent Cytotoxicity is strictly less than 30% and as no (0) in all remaining cases.

// query Does the reported Percent Cytotoxicity of CC[C@H](C)[C@H](NC(=O)[C@H](Cc1c[nH]cn1)NC(=O)CNC(=O)[C@@H](NC(=O)C(C)(C)NC(=O)[C@H](Cc1c[nH]c2ccccc12)NC(=O)[C@H](CCC(N)=O)NC(=O)[C@H](N)Cc1ccccc1)C(C)C)C(N)=O [SEQ ID: 6, D-Phe-Gln-Trp-Aib-Val-Gly-His-Ile-NH2] (H-[dF]QW[Aib]VGHI-NH2; N-terminus assumed) stay below 30%?
// result yes (1)

// query Threshold test, Percent Cytotoxicity < 30%: CC[C@H](C)[C@H](NC(=O)[C@H](Cc1c[nH]cn1)NC(=O)C(C)(C)NC(=O)[C@@H](NC(=O)[C@H](C)NC(=O)[C@H](Cc1c[nH]c2ccccc12)NC(=O)[C@H](CCC(N)=O)NC(=O)[C@H](N)Cc1ccccc1)C(C)C)C(N)=O [SEQ ID: 7, D-Phe-Gln-Trp-Ala-Val-Aib-His-Ile-NH2] (H-[dF]QWAV[Aib]HI-NH2; N-terminus assumed)
// result no (0)

// query Determine if CCCC(CCC)(NC(=O)[C@@H](NC(=O)[C@H](C)NC(=O)[C@@H](Cc1c[nH]c2ccccc12)NC(=O)[C@H](CCC(N)=O)NC(=O)[C@H](N)Cc1ccccc1)C(C)C)C(=O)N[C@@H](Cc1c[nH]cn1)C(=O)N[C@@H](CC(C)C)C(N)=O [SEQ ID: 8, D-Phe-Gln-D-Trp-Ala-Val-Dpg-His-Leu-NH2] shows Percent Cytotoxicity strictly lower than 30%.
// result yes (1)

// query Identify whether the molecule CC(C)C[C@H](NC(=O)[C@H](Cc1c[nH]cn1)NC(=O)C(C)(C)NC(=O)[C@@H](NC(=O)[C@H](C)NC(=O)[C@@H](Cc1c[nH]c2ccccc12)NC(=O)[C@H](CCC(N)=O)NC(=O)[C@H](N)Cc1ccccc1)C(C)C)C(N)=O [SEQ ID: 5, D-Phe-Gln-D-Trp-Ala-Val-Aib-His-Leu-NH2] (H-[dF]Q[dW]AV[Aib]HL-NH2; N-terminus assumed) records Percent Cytotoxicity below 30%.
// result no (0)

* * *

System: A549 (lung)
Experiment: MTT cytotoxicity assay, 72 hours (Example 13)
Assay type: cell-based, human
Settings: A549, 100 nM
Non-standard residues stand in square brackets, D forms with d. Residues, ends and D or L forms follow the SMILES beside them. Aib = CC(C)(N)C(=O)O
Lab note: cut-off is 20%. Strictly less in Percent Cytotoxicity is 1.0. Exactly 20% or more is 0.0.

// query Please determine if CC(C)C[C@H](NC(=O)[C@H](Cc1c[nH]cn1)NC(=O)C(C)(C)NC(=O)[C@@H](NC(=O)[C@H](C)NC(=O)[C@@H](Cc1c[nH]c2ccccc12)NC(=O)[C@H](CCC(N)=O)NC(=O)[C@H](N)Cc1ccccc1)C(C)C)C(N)=O [SEQ ID: 5, D-Phe-Gln-D-Trp-Ala-Val-Aib-His-Leu-NH2] (H-[dF]Q[dW]AV[Aib]HL-NH2; N-terminus assumed) is below 20% in terms of Percent Cytotoxicity.
// result 0.0

// query Dear reviewer, please state whether CCCC(CCC)(NC(=O)[C@@H](NC(=O)[C@H](C)NC(=O)[C@@H](Cc1c[nH]c2ccccc12)NC(=O)[C@H](CCC(N)=O)NC(=O)[C@H](N)Cc1ccccc1)C(C)C)C(=O)N[C@@H](Cc1c[nH]cn1)C(=O)N[C@@H](CC(C)C)C(N)=O has Percent Cytotoxicity strictly beneath 20%.
// result 0.0

// query hey, is Percent Cytotoxicity for CC[C@H](C)[C@H](NC(=O)[C@H](Cc1c[nH]cn1)NC(=O)C(C)(C)NC(=O)[C@@H](NC(=O)[C@H](C)NC(=O)[C@H](Cc1c[nH]c2ccccc12)NC(=O)[C@H](CCC(N)=O)NC(=O)[C@H](N)Cc1ccccc1)C(C)C)C(N)=O [SEQ ID: 7, D-Phe-Gln-Trp-Ala-Val-Aib-His-Ile-NH2] (H-[dF]QWAV[Aib]HI-NH2; N-terminus assumed) lower than 20% or not?
// result 1.0

// query Hello, I'm reviewing records and need to know if Percent Cytotoxicity of CC[C@H](C)[C@H](NC(=O)[C@H](Cc1c[nH]cn1)NC(=O)CNC(=O)[C@@H](NC(=O)C(C)(C)NC(=O)[C@H](Cc1c[nH]c2ccccc12)NC(=O)[C@H](CCC(N)=O)NC(=O)[C@H](N)Cc1ccccc1)C(C)C)C(N)=O [SEQ ID: 6, D-Phe-Gln-Trp-Aib-Val-Gly-His-Ile-NH2] (H-[dF]QW[Aib]VGHI-NH2; N-terminus assumed) is below 20%. Could you check?
// result 1.0

* * *

System: L132 (Lung)
Test: MTT cytotoxicity assay, 48 hours (Example 14)
Format: cell-based
Settings: L132, 100 pM
Non-standard residues stand in square brackets, D forms with d. Residues, ends and D or L forms follow the SMILES beside them. *: point of attachment. Aib = CC(C)(N)C(=O)O; Butyryl = CCCC(=O)*
Value kind: Percentage cytotoxicity (%)
Write the number in % without appending the unit.

// query In one line, give reported Percentage cytotoxicity of the entry CCCC(=O)N[C@H](Cc1ccccc1)C(=O)N[C@@H](CCC(N)=O)C(=O)N[C@@H](Cc1c[nH]c2ccccc12)C(=O)N[C@@H](C)C(=O)N[C@H](C(=O)NC(C)(C)C(=O)N[C@@H](Cc1c[nH]cn1)C(=O)N[C@@H](CC(C)C)C(N)=O)C(C)C [SEQ ID: 11] (Butyryl-[dF]QWAV[Aib]HL-NH2) .
// result 18.3

* * *

Tested on: PTC (colon)
Assay: MTT cytotoxicity assay, 48 hours (Example 14)
Format: cell-based, human
Details: 1 nM
Non-standard residues stand in square brackets, D forms with d. Residues, ends and D or L forms follow the SMILES beside them. *: point of attachment. Octanoyl = CCCCCCCC(=O)*; Ac5c = NC1(C(=O)O)CCCC1; Deg = CCC(N)(CC)C(=O)O; Aib = CC(C)(N)C(=O)O; Butyryl = CCCC(=O)*
Value kind: Percentage cytotoxicity
Express the reported value numerically, then name its unit.

// query For the molecule CC(C)C[C@H](NC(=O)[C@H](Cc1c[nH]cn1)NC(=O)C1(NC(=O)[C@@H](NC(=O)[C@H](C)NC(=O)[C@H](Cc2c[nH]c3ccccc23)NC(=O)[C@H](CCC(N)=O)NC(=O)[C@H](N)Cc2ccccc2)C(C)C)CCCC1)C(N)=O [SEQ ID: 10, D-Phe-Gln-Trp-Ala-Val-Ac5c-His-Leu-NH2] (H-[dF]QWAV[Ac5c]HL-NH2; N-terminus assumed) , give its reported Percentage cytotoxicity.
// result 29.4 ± 2.9%

// query Annotate the molecule CCCCCCCC(=O)N[C@H](Cc1ccccc1)C(=O)N[C@@H](CCC(N)=O)C(=O)N[C@@H](Cc1c[nH]c2ccccc12)C(=O)N[C@@H](C)C(=O)N[C@H](C(=O)NC(C)(C)C(=O)N[C@@H](Cc1c[nH]cn1)C(=O)N[C@@H](CC(C)C)C(N)=O)C(C)C [SEQ ID: 12] (Octanoyl-[dF]QWAV[Aib]HL-NH2) with its measured Percentage cytotoxicity.
// result 30.1 ± 4.1%

// query Identify Percentage cytotoxicity associated with the molecule CCC(CC)(NC(=O)[C@H](Cc1c[nH]c2ccccc12)NC(=O)[C@H](CCC(N)=O)NC(=O)[C@H](N)Cc1ccccc1)C(=O)N[C@H](C(=O)NCC(=O)N[C@@H](Cc1c[nH]cn1)C(=O)N[C@@H](CC(C)C)C(N)=O)C(C)C [SEQ ID: 9, D-Phe-Gln-Trp-Deg-Val-Gly-His-Leu-NH2] (H-[dF]QW[Deg]VGHL-NH2; N-terminus assumed)
// result 25.6 ± 5.1%

// query Return Percentage cytotoxicity (reported value) for this molecule: CCCC(=O)N[C@H](Cc1ccccc1)C(=O)N[C@@H](CCC(N)=O)C(=O)N[C@@H](Cc1c[nH]c2ccccc12)C(=O)N[C@@H](C)C(=O)N[C@H](C(=O)NC(C)(C)C(=O)N[C@@H](Cc1c[nH]cn1)C(=O)N[C@@H](CC(C)C)C(N)=O)C(C)C [SEQ ID: 11] (Butyryl-[dF]QWAV[Aib]HL-NH2)
// result 28.5 ± 2.8%

* * *

Test system: L132 (Lung)
Assay: MTT cytotoxicity assay, 48 hours (Example 14)
Type: cell-based
Settings: L132, 10 nM
Non-standard residues stand in square brackets, D forms with d. Residues, ends and D or L forms follow the SMILES beside them. *: point of attachment. Octanoyl = CCCCCCCC(=O)*; Ac5c = NC1(C(=O)O)CCCC1; Deg = CCC(N)(CC)C(=O)O; Aib = CC(C)(N)C(=O)O; Butyryl = CCCC(=O)*
Task for the reader: assign each of the following compounds its reported Percentage cytotoxicity.
Give the number; % is assumed, so skip it.

// query Respond only with Percentage cytotoxicity recorded for CC(C)C[C@H](NC(=O)[C@H](Cc1c[nH]cn1)NC(=O)C1(NC(=O)[C@@H](NC(=O)[C@H](C)NC(=O)[C@H](Cc2c[nH]c3ccccc23)NC(=O)[C@H](CCC(N)=O)NC(=O)[C@H](N)Cc2ccccc2)C(C)C)CCCC1)C(N)=O [SEQ ID: 10, D-Phe-Gln-Trp-Ala-Val-Ac5c-His-Leu-NH2] (H-[dF]QWAV[Ac5c]HL-NH2; N-terminus assumed)
// result 27.5

// query Note Percentage cytotoxicity for the compound shown: CCC(CC)(NC(=O)[C@H](Cc1c[nH]c2ccccc12)NC(=O)[C@H](CCC(N)=O)NC(=O)[C@H](N)Cc1ccccc1)C(=O)N[C@H](C(=O)NCC(=O)N[C@@H](Cc1c[nH]cn1)C(=O)N[C@@H](CC(C)C)C(N)=O)C(C)C [SEQ ID: 9, D-Phe-Gln-Trp-Deg-Val-Gly-His-Leu-NH2] (H-[dF]QW[Deg]VGHL-NH2; N-terminus assumed)
// result 27.2

// query Using the record for CCCC(=O)N[C@H](Cc1ccccc1)C(=O)N[C@@H](CCC(N)=O)C(=O)N[C@@H](Cc1c[nH]c2ccccc12)C(=O)N[C@@H](C)C(=O)N[C@H](C(=O)NC(C)(C)C(=O)N[C@@H](Cc1c[nH]cn1)C(=O)N[C@@H](CC(C)C)C(N)=O)C(C)C [SEQ ID: 11] (Butyryl-[dF]QWAV[Aib]HL-NH2) , state its measured Percentage cytotoxicity.
// result 30.4

// query Give recorded Percentage cytotoxicity. CCCCCCCC(=O)N[C@H](Cc1ccccc1)C(=O)N[C@@H](CCC(N)=O)C(=O)N[C@@H](Cc1c[nH]c2ccccc12)C(=O)N[C@@H](C)C(=O)N[C@H](C(=O)NC(C)(C)C(=O)N[C@@H](Cc1c[nH]cn1)C(=O)N[C@@H](CC(C)C)C(N)=O)C(C)C [SEQ ID: 12] (Octanoyl-[dF]QWAV[Aib]HL-NH2)
// result 26.4
